Test system: Rattus norvegicus
protocol: Hypotensive activity in deoxycorticosterone acetate treated hypertensive CD rat assessed as change in blood pressure at 100 mg, ip after 1 hr relative to control
Format: functional
quantity.name: Activity (%)
// return numeric value only (unit: %, not printed)

>>> df
                               query_smiles   target_or_system  quantity_name  quantitative_readout
0  COc1c2c(c3c(c1OC)CCN(CC(c1ccccc1)c1ccccc1)C3)CCC2  Rattus norvegicus       Activity                    -5
1  COc1c2c(c3c(c1OC)CN(CC(c1ccccc1)c1ccccc1)CC3)CCC2  Rattus norvegicus       Activity                 -10.7
2  COc1c2c(c3c(c1OC)CN(CCC(c1ccccc1)c1ccccc1)CC3)CCC2  Rattus norvegicus       Activity                  -3.5

[in] Find the measured Activity of COc1ccc(C(=O)N2CCc3c(c4c(c(OC)c3OC)CCC4)C2)cc1OC and report it.
[out] -12.1
